B1: Peroxisome proliferator-activated receptor delta, residues 71 to 145; numbered along this chain, Q03181 (parent)
chain: NMECRVCGDKASGFHYGVHACEGCKGFFRRTIRMKLEYEKCERSCKIQKKNRNKCQYCRFQKCLALGMSHNAIRF

- Variants of: B1
- protocol.description: abundance fitness (aPCA) (normalised: wild type 0, dead -1); higher = more abundant; growth selection in yeast, the domain comes from the species named
- condition.summary: Homo sapiens
A collection of variants and their measured abundance fitness
value.type: abundance fitness

>>> val("I32G")
-0.677
>>> val("Q61N")
-0.359
>>> val("L36D")
-0.461
>>> val("E39M")
-0.167
>>> val("H70P")
0.185
>>> val("G26W")
-0.174
>>> val("A11H")
-0.218
>>> val("K46T")
0.05
>>> val("R30A")
-0.359
>>> val("V6D")
-0.823
>>> val("E22F")
-0.343
>>> val("R59T")
-0.218
>>> val("C21Y")
-0.599
>>> val("I47Y")
-0.419
>>> val("N51V")
-0.17
>>> val("Y38T")
-0.607
>>> val("R59I")
-0.837
>>> val("Q61K")
-0.098
>>> val("K54W")
-0.036
>>> val("M68S")
-0.746
>>> val("C4K")
-0.775
>>> val("I47M")
-0.132
>>> val("G67H")
-0.714
>>> val("G8V")
-0.899
>>> val("F75N")
-0.021
>>> val("R29L")
0.139
>>> val("R5L")
0.003
>>> val("F14K")
0.006
>>> val("R30N")
0.021
>>> val("H15Y")
-0.088
>>> val("E3P")
-0.353
>>> val("Y16W")
-0.27
>>> val("K62E")
-0.447
>>> val("L36C")
-0.13
>>> val("F28K")
-0.758
>>> val("G17N")
-0.238
>>> val("S44T")
-0.049
>>> val("F27A")
-0.934
>>> val("S69Q")
0.088
>>> val("Y38H")
-0.718
>>> val("C4S")
-0.669
>>> val("G17V")
-0.647
>>> val("Y16T")
-0.32
>>> val("R5A")
0.175
>>> val("Q56T")
-0.321
>>> val("N1D")
-0.049
>>> val("S69P")
-0.461
>>> val("C7F")
-0.867
>>> val("F28H")
-0.936
>>> val("R59W")
0.204
>>> val("C58K")
-0.825
>>> val("S12V")
-0.222
>>> val("E39T")
-0.052
>>> val("E22R")
-0.293
>>> val("K46W")
-0.153
>>> val("R59F")
-0.042
>>> val("K62D")
-0.671
>>> val("Y57R")
-0.671
>>> val("Q56A")
0.074
>>> val("C63Y")
-0.232
>>> val("K46P")
0.037
>>> val("C24L")
-0.753
>>> val("R74I")
0.001
>>> val("A65S")
-0.011
>>> val("A11L")
-0.338
>>> val("G17F")
-0.661
>>> val("Y16H")
-0.13
>>> val("I47S")
-0.287
>>> val("L64G")
-0.805
>>> val("S69C")
-0.138
>>> val("K25E")
0.142
>>> val("S44K")
0.12
>>> val("C63G")
-0.591
>>> val("G26H")
0.221
>>> val("S44F")
-0.005
>>> val("N71P")
0.095
>>> val("I47T")
-0.253
>>> val("Y57P")
-0.961
>>> val("D9W")
-0.618
>>> val("C21S")
-0.867
>>> val("D9N")
-0.152
>>> val("A72H")
0.047
>>> val("K49E")
0.144
>>> val("A72L")
-0.144
>>> val("M34V")
-0.577
>>> val("C58R")
-0.771
>>> val("K54Q")
-0.012
>>> val("E37N")
0.014
>>> val("R5Y")
-0.085
>>> val("C24S")
-0.809
>>> val("G23N")
0.109
